Just for reference, the supplement of paper PMC10065799 is where these values come from.

Measured SH2 binding enrichment, listed per entry.
# EXPERIMENTAL_SYSTEM: c-Src SH2;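 note: peptide library displayed on the E. coli surface as eCPX fusions, selected cells deep-sequenced, score is each peptide's frequency after selection divided by its frequency in the input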
# ASSAY_PROTOCOL: SH2 binding enrichment of the phosphorylated peptide, bacterial display (enrichment ratio); higher = better substrate or ligand; peptides without Tyr show the background

Worked examples, 2 sequences total:
{"SEQUENCE_ENTRY": "REENGYNTYAS [FGF10_Y161_I156R]", "SH2 binding enrichment": 0.509}
{"SEQUENCE_ENTRY": "LSGVIYVILWK [PMP22_Y153_R157W]", "SH2 binding enrichment": 0.595}

SH2 binding enrichment lookup needed for AAQNCYKVTNG [TPI1_Y105] , thanks.
0.594

SH2 binding enrichment lookup needed for LTNDRYVATLT [IL6ST_Y396_L397V] , thanks.
0.537

SH2 binding enrichment lookup needed for GPRSLYNGLVA [UCP2_Y79] , thanks.
0.621

SH2 binding enrichment lookup needed for EEEPVYEAEPE [HCLS1_Y360] , thanks.
0.542

SH2 binding enrichment lookup needed for VYYDLYGGEKF [PTPN11_Y66_D61V] , thanks.
2.26

SH2 binding enrichment lookup needed for LEFGDYHPLKP [VPS35L_Y32] , thanks.
0.58

SH2 binding enrichment lookup needed for DMDATYRPMFS [JUP_Y701_YF] , thanks.
0.472

SH2 binding enrichment lookup needed for WRVISYHVVVW [ATP13A2_Y50_G49S] , thanks.
0.619

SH2 binding enrichment lookup needed for AEFGLYGAMVR [VSX2_Y222_YF] , thanks.
0.42

SH2 binding enrichment lookup needed for GFRPVYSEDEQ [CHST6_Y362_YF] , thanks.
0.645
